Assign pIC50 to each entry below.
Molecular target: KRASwt (Homo sapiens)
Sequence (P01116 1-188 isoform P01116-2): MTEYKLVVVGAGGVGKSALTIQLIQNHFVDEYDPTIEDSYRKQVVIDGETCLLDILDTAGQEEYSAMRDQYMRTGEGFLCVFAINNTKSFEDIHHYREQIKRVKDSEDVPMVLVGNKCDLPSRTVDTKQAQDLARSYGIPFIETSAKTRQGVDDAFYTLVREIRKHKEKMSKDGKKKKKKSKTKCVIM
Experiment: Bio-Biochem-PPI-HTRF Ras-SOS1 interaction assay (KRAS wt)
Conditions: 5 nM
pIC50: −log10 of the molar value.

Observe how each entry below is paired with its result.
N#Cc1c(N)sc2c(F)ccc(-c3c(Cl)cc4c(N5CCCCC6(CN(C(=O)N7CCC(F)(F)C7)C6)C5)nc(OC[C@@]56CCCN5C[C@H](F)C6)nc4c3F)c12
> 5.30
Nc1nc2c(-c3c(Cl)cc4c(N5CCOC6(C5)CN(S(=O)(=O)F)C6)nc(OC[C@@]56CCCN5C[C@H](F)C6)nc4c3F)ccc(F)c2s1
> 5.30

Turning now to a further record.
(Q) Sample `N#Cc1c(N)sc2c(F)ccc(-c3c(Cl)cc4c(N5CCCCC6(CNC6)C5)nc(OC[C@@]56CCCN5C[C@H](F)C6)nc4c3F)c12` — what was its pIC50?
(A) > 5.30
